Where do these numbers come from? They come from PubChem BioAssay (NCI).

# Test system: NCI-H226 lung
# experimental.details: NCI-60 one-dose screen, 48 h (100 = growth as untreated, 0 = no growth, -100 = all killed)
# experimental.context: 10 µM unless noted
The panel holds about 83,000 compounds, 20% with a hit somewhere; the sample as a whole holds those more often.
This section presents compounds with their documented growth values.
Answer format: numeric, % implied, no suffix.

Recorded growth, per entry:
compound	tested.on	growth / %
Nc1ncc([N+](=O)[O-])cn1	NCI-H226 lung	103
COC1C(=O)CCC2(CO2)C1(O)C1(C)OC1CCC(C)C (centres undefined)	NCI-H226 lung	85.2
C1C[S+]2CC[S+]1CC2	NCI-H226 lung	98.3
NNc1ncnc2c1ncn2C1OC(CO)C(O)C1O (centres undefined)	NCI-H226 lung	55.8
CCOC(=O)/C(C)=C\c1ccc(OC)c(OC)c1	NCI-H226 lung	100

Would you kindly share the measured growth for CC(=O)C[n+]1ccc(C)cc1Sc1ccccc1C ?
107

Would you mind telling me what growth value was observed for CCCCN(C(=O)CC)c1ccccc1 ?
107

I am curious: what growth value has been reported for O=C(CCl)Oc1ccc([N+](=O)[O-])cc1 ?
102

Item CCOC(=O)/C(O)=C(\C=N\C(=S)Nc1ccc(Cl)c(Cl)c1)C(=O)OCC has what recorded growth?
75.2

Using the record for Cc1ccc(NC(=S)N2CCOCC2)cc1C , report its growth.
92.4

Returns the measured growth for the input compound. Input: CNc1ccccc1C(N)=O
103

Give the measured growth of COc1cc(CC#N)c([N+](=O)[O-])cc1OC .
105

Data request, read-out growth, for Cc1ccc(S(=O)(=O)CCCl)cc1
108

Using the record for CCNC(=O)OCCc1c2ccccc2nc2ccccc12 , report its growth.
106

Looking for the measured growth of CC(C)c1ccc(C(=O)OCCCl)cc1 , can you help?
106

# query: growth of entry c1ccc2[nH]c(Cc3nc4ccccc4[nH]3)nc2c1
112

Name the recorded growth for O=Cc1ccc(O)c(O)c1 .
95.9

Which growth reading was recorded for the compound Cc1[nH]n(-c2ccccc2)c(=O)c1C=NC(=S)C(N)=S ?
99.7

I am curious: what growth value has been reported for N#CCCN1C(=O)CCC1C(=O)O (centres undefined) ?
113

Which growth value belongs to Cc1c(Cl)cccc1NC(=S)NC(=O)c1ccccc1 ?
90.8

Look at this compound and give its reported growth. CCOC(=O)C(COS(C)(=O)=O)(COS(C)(=O)=O)C(=O)OCC
105

Which measured growth value corresponds to CCC(=O)Oc1c(C)cc(O)c2ccccc12 ?
86.8

Can you share its growth? I mean this compound: CC(C)(C)CC1(C)NC(=O)NC1=O (centres undefined)
112

Quick one: growth of CN1CCN(C(=S)S)CC1 ?
109

For CSCC[C@@H]1C(=O)N(C)[C@H](C(C)(C)C)N1C(=O)c1ccccc1 , what is its reported growth?
102

Quick one: growth of Nc1ncnc(Nc2ccccc2)n1 ?
104

Given the entry CCOC(=O)c1c(C)[nH]c(C)c1C=O , report its measured growth.
99.6

Query: growth; subject: O=S(=O)(O)c1ccc(O)c(C2CCCCC2)c1
98.4

For the compound O=C1Nc2ccccc2/C1=C\c1ccccc1O , what growth is on record?
93.2
